Where do these numbers come from? They come from patent US20130251724A1.

Molecular target: T1, Human OSM (human, UniProt P13725 26-221)
T1 construct: Recombinant human OSM; also called hOSM; human Oncostatin M
T1 sequence: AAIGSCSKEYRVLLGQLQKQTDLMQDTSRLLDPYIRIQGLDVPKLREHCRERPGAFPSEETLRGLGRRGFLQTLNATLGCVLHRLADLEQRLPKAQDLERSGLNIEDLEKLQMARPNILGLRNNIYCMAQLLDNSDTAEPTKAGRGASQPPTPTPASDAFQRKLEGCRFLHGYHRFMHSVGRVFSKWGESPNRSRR
Assay: BIAcore kinetics, purified antibody
Provide the reported pKd of each item.
One number for each entry, as −log10 of the molar value.

Reference set, count: 2
Humanised 10G8 H1L4 (antibody, V domains shown) VH: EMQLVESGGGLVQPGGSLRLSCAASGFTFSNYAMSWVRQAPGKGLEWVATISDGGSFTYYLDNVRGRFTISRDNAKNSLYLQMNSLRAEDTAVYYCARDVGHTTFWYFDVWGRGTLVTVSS VL: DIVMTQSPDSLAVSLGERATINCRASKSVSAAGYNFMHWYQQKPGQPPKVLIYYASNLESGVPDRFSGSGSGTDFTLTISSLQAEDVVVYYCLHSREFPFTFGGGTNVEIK: 9.43
Humanised 10G8 H2L4 (antibody, V domains shown) VH: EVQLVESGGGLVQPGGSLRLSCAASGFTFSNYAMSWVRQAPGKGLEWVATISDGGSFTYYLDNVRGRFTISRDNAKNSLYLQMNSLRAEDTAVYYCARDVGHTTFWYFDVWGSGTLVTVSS VL: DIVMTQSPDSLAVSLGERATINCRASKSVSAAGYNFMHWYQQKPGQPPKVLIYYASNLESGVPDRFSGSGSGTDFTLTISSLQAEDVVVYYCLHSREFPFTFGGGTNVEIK: 9.45

Query: // returns reported pKd for input 15E10h, non-competitive anti-OSM humanised antibody (antibody, human IgG1, kappa, V domains shown, also called Humanised 15E10; humanised 15E10) VH: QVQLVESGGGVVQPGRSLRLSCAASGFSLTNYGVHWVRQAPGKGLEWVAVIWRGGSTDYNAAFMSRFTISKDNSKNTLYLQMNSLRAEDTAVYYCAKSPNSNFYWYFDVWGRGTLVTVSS VL: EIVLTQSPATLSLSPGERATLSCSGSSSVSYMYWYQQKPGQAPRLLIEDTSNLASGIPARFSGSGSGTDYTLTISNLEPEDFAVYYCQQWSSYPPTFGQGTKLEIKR
Reply: 8.84
